biological target: Human FAAH (Homo sapiens, UniProt O00519); construct: made in house; assay: FAAH assay (glutamate dehydrogenase-coupled, oleamide substrate, absorbance at 340 nm); format: biochemical; conditions: irreversible inhibition potency
Sequence (O00519 32-579 limits assumed): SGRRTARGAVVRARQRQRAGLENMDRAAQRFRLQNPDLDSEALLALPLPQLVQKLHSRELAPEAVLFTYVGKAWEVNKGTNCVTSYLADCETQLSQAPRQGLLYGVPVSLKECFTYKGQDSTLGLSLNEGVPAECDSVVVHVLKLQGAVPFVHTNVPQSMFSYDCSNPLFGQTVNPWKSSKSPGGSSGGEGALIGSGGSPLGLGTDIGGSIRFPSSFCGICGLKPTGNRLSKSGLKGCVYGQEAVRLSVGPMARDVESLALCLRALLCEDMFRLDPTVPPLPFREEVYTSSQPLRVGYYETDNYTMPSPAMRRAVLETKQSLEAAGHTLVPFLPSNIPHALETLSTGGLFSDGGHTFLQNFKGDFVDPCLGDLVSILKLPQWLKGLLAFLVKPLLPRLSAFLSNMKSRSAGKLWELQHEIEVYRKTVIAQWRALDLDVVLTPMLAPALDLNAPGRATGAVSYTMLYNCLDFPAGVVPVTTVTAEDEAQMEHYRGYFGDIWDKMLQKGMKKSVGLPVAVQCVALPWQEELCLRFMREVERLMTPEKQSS
Kindly state hFAAH KInact/K for each of the entries shown.

Lab note: C=CC(C)Oc1cccc(C=C2CCN(C(=O)Nc3cccnn3)CC2)c1 (centres unmarked) gave hFAAH KInact/K of <10.0 M⁻¹ s⁻¹

Lab note: O=C(Nc1cccnn1)N1CCC(=Cc2cccc(OC3CCCCC3)c2)CC1 gave hFAAH KInact/K of 3300 M⁻¹ s⁻¹

Lab note: O=C(Nc1cccnn1)N1CCC(=Cc2cccc(OCCC3CC3)c2)CC1 gave hFAAH KInact/K of 22138 M⁻¹ s⁻¹

Lab note: Cc1cc(COc2cccc(C=C3CCN(C(=O)Nc4cccnn4)CC3)c2)nn1C gave hFAAH KInact/K of 116 M⁻¹ s⁻¹

Lab note: O=C(Nc1cccnc1)N1CCC(=Cc2cccc(OC3CCOCC3)c2)CC1 gave hFAAH KInact/K of 738 M⁻¹ s⁻¹

Lab note: O=C(Nc1cccnn1)N1CCC(=Cc2cccc(OCc3cc4ccccc4o3)c2)CC1 gave hFAAH KInact/K of 629 M⁻¹ s⁻¹

Lab note: CCC(C)Oc1cccc(C=C2CCN(C(=O)Nc3cccnn3)CC2)c1 (centres unmarked) [Example 21] gave hFAAH KInact/K of 973 M⁻¹ s⁻¹

Lab note: O=C(Nc1cccnn1)N1CCC(=Cc2cccc(OC3CC3)c2)CC1 gave hFAAH KInact/K of 1730 M⁻¹ s⁻¹

Lab note: CC(C)(C)CCOc1cccc(C=C2CCN(C(=O)Nc3cccnn3)CC2)c1 gave hFAAH KInact/K of 2580 M⁻¹ s⁻¹

Lab note: O=C(Nc1cccnc1)N1CCC(=Cc2cccc(OC3CCCC3)c2)CC1 gave hFAAH KInact/K of 1900 M⁻¹ s⁻¹

Lab note: CCCCOc1cccc(C=C2CCN(C(=O)Nc3cccnn3)CC2)c1 gave hFAAH KInact/K of 8350 M⁻¹ s⁻¹
